# target.under.test: T1, QP271 (rhesus SIRPα1-flag-his T-557-28) (rhesus monkey)
# T1 construct: also called rhesus monkey SIRPα (QP271); monkeySIRPα1-flag-his
# T1 chain: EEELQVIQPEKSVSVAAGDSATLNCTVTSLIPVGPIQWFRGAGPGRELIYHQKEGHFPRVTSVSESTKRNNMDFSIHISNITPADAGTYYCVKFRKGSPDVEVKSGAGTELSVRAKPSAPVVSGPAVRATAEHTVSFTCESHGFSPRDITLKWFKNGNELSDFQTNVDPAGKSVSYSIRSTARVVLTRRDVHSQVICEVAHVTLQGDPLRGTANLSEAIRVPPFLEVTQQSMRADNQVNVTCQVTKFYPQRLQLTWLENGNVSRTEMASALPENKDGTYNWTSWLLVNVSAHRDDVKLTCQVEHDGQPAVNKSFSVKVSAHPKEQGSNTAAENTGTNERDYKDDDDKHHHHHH
# measurement.protocol: SPR, Biacore
pKd: −log10 of the molar value.

binder	pKd
QP2561770 (antibody, human IgG4, V domains shown, Human IgG4 heavy constant region and kappa CL) VH: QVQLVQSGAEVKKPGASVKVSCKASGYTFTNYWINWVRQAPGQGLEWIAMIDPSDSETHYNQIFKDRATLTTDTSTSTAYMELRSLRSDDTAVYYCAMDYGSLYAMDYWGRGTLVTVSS VL: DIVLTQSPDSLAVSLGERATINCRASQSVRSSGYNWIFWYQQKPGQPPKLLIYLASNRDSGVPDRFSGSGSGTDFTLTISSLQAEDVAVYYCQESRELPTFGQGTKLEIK	10.00
QP2561586 (antibody, human IgG4, V domains shown, Human IgG4 heavy constant region and kappa CL) VH: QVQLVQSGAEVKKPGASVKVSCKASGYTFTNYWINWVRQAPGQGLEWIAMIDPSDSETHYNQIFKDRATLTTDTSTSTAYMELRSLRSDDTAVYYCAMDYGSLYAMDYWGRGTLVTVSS VL: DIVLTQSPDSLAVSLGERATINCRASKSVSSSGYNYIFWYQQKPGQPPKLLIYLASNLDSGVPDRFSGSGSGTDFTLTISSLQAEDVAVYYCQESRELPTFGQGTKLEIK	8.76
QP2561589 (antibody, human IgG4, V domains shown, Human IgG4 heavy constant region and kappa CL) VH: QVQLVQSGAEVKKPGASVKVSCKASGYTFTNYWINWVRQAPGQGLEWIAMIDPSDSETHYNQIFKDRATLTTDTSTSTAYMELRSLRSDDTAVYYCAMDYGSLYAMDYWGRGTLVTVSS VL: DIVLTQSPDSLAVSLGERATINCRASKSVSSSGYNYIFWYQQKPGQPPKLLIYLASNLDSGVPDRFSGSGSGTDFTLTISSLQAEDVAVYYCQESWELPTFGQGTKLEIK	8.62
QP256279 (antibody, human IgG4, V domains shown, Human IgG4 heavy constant region and kappa CL) VH: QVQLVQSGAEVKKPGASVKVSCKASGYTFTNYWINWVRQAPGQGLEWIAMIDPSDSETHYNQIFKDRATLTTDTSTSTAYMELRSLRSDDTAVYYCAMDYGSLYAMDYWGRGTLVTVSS VL: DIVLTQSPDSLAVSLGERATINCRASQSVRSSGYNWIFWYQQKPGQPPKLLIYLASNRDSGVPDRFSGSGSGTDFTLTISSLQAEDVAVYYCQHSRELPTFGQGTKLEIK	9.36
